System: HL-1
Method description: cardiomyocyte survival under oxidative or metabolic stress – cell-based, panel, H9c2 and HL-1, H2O2, 2-deoxyglucose, ATP luminescence, SAR follow-up (AID 651642)
Recorded conditions: H9c2/HL-1 cardiomyocyte 2-deoxyglucose damage, run 1, with 2-deoxyglucose
pIC50: −log10 of the molar value.
# pIC50 per record follows

CCOC(=O)c1cccc(NC(=O)c2cc(-c3cc(OC)c(OC)c(OC)c3)nc3c(Cl)cccc23)c1 | < 4.10

So, `CCOC(=O)c1ccc(NC(=O)c2cc(-c3cc(OC)c(OC)c(OC)c3)nc3ccccc23)cc1` ? Its pIC50 was < 4.10

So, `CCOC(=O)c1cccc(NC(=O)c2cc(-c3cc(OC)c(OC)c(OC)c3)nc3ccc(Br)cc23)c1` ? Its pIC50 was < 4.10

So, `COc1cc(-c2cc(C(=O)Nc3cccc(C(C)=O)c3)c3ccc(Cl)cc3n2)cc(OC)c1OC` ? Its pIC50 was < 4.10
